Cited source for all entries: the supplement of paper PMC9170038

# System: MS2 coat protein
# ASSAY PROTOCOL: apparent KD of MS2 coat protein; higher = weaker reporter binding
# CONDITION NOTES: Eterna round: R107; input ligand: tryptophan 2.4 mM
Lab note: compare apparent KD of MS2 coat protein against 40 nM. Equal or greater, write Yes. Smaller, write No.

Solved cases below.
{"SEQUENCE RECORD": "UUCAGCUAGUCGGCCGCCACUACAAGAGGAUCACCCUUGUAGGUCCACACUGCUUCGGCAGUGAGUAGGACCGGGACUAGCUGAG", "LABEL CLASS": "No"}
{"SEQUENCE RECORD": "GGGCGCGUGGACUGGCGUGCUCCGCUCCGUCGAGGACCGGUACGGCCGCCACUCGACAUGAGGAUCACCCAUGUGUGCGCUCGCG [#1 Exclusion - Tryptophan A Attempt #18 (HarryS)]", "LABEL CLASS": "No"}
{"SEQUENCE RECORD": "AAAAUAUACGGAAGGAGCGUGUAAGAUUAAGAACAUGAGGAUCACCCAUGUUUUAAGGGAACACAGGUAGGUCGCCGUAUAUAAA [11.N]", "LABEL CLASS": "No"}

**Query** Determine whether this sequence has apparent KD of MS2 coat protein no lower than 40 nM: AAUUAAUUAACCGAUACCAGCCAACCAAAACAUGAGGAUCACCCAUGUAAGAAGAAGGGUGGCCCUUGGCAGCGGUUAAUUAAUU
**Result** No

**Query** Textbook exercise: given the entry UCGGGCAGAGCGGCCGCCACUGUAAGGCGUGCGGAUGACGGAACAUGAGGAUCACCCAUGUUGUUUAGGACCGGGCUUGCGGCGA [nynullin] , state whether its apparent KD of MS2 coat protein is greater than or equal to 40 nM.
**Result** No

**Query** Say whether CAUCGGGCGGUAAAUGGCGGGUACGGUGAUACCAGUUUUUGAUUUAACCCUUGGCAGCACUAUACAUGAGGAUCACCCAUGUAAU [theeternabot_exclusion_MS2_Theo_A_15] shows apparent KD of MS2 coat protein of 40 nM or more.
**Result** No

**Query** Is it the case that AGCCUCAUACAUGAGGAACACCCAUGUGAUACCAGUCAGGAAACUGACCCUUGGCAGCGCAUGAGGAUCACCCAUGCGCGAGGCA [Omei Theo A Exc A v3] has apparent KD of MS2 coat protein reaching or exceeding 40 nM?
**Result** Yes

**Query** Assess whether reported apparent KD of MS2 coat protein for UUAUGCAGGUCGGCCGCCACUACACACAUGAGGAUCACCCAUGUAGUUACUGGGUGAAGUGGCAGUAGGACCGGGACCCGCACAU [Brourdmod21] sits at 40 nM or higher.
**Result** Yes

**Query** Form field: apparent KD of MS2 coat protein at least 40 nM? Entry: AGGACGGUCGGAAGGAGCGGUACAUGAGGAUCACCCAUGUACUCCUGGGCAUCCGUAGUGUGCCAGGUAGGUCGCCGAUUGCGGG [XArg-B8]
**Result** No

**Query** I'd appreciate it if you could say whether GGGUACAUCGCGGCCGCCACUUUUGUAAAUACAUGAGGAUCACCCAUGUCGAUGGAGACAUCGGUGAGGACCGGGUGAUGUACCG has apparent KD of MS2 coat protein at least equal to 40 nM.
**Result** Yes

**Query** Given UCACAUGAGGAUCACCCAUGUACAGGCGAUACCAGCCGUACAUUGGGCCCUUGGCAGCGCACCGAGACCUUUUAAAGCACUUCGG [Er] , state whether its apparent KD of MS2 coat protein is at least 40 nM.
**Result** No
